Numbers sourced from patent US5234935A.

# System: leukocyte adhesion
# experimentalDetails: Leukocyte adhesion in hamster cheek pouch model
# Format: in vivo
# measurementContext: 0.1 mg/kg i.v.; ischaemic (10 min circulation stop), small arterioles
Kindly supply the reported Leukocyte adhesion, Ischaemic, control = 100% values for the records listed here.

Use the examples below as a reference point.
[[record]]
molecule = "COC(=O)C1=C(C)N(C)C(C)=C(C(=O)OC)C1c1ccc(C(F)(F)F)cc1"
result = "31%"

[[record]]
molecule = "CCOC(=O)C1=C(C)N(C2CC2)C(C)=C(C(=O)OCC)C1c1ccc(C(F)(F)F)cc1"
result = "34%"

[[record]]
molecule = "COC(=O)C1=C(C)N(C2CC2)C(C)=C(C(=O)OC)C1c1ccc(C(F)(F)F)cc1"
result = "32%"


Batch: Leukocyte adhesion, Ischaemic, control = 100% for all items listed.
1. CCCCOC(=O)C1=C(C)N(C)C(C)=C(C(=O)OCCCC)C1c1ccc([N+](=O)[O-])cc1
2. COC(=O)C1=C(C)N(C)C(C)=C(C(=O)OC(C)C(C)C)C1c1ccc(C(F)(F)F)cc1 (centres unmarked)

Output line:
["56%", "36%"]

----------
# Test system: erythrocytes
# experimentalDetails: Antihaemolytic action, calcium-laden erythrocytes under high shearing stress
# Format: cell-based
# measurementContext: Erythrocyte; reduction of haemoglobin release from calcium-laden erythrocytes; read-out: ED50 of the antihaemolytic action
outcomeMeasure: EC50 (nM)
Numbers only, in nM.

Record EC50 per entry; entries follow.
1. CCCOC(=O)C1=C(C)N(C)C(C)=C(C(=O)OCCC)C1c1ccc(C#N)cc1 [Example 15]
2. COC(=O)C1=C(C)N(C)C(C)=C(C(=O)OC)C1c1ccc(Cl)c(C(F)(F)F)c1 [Example 26]
3. COC(=O)C1=C(C)N(C)C(C)=C(C(=O)OC)C1c1cccc(F)c1 [Example 2]
4. COC(=O)C1=C(C)N(C)C(C)=C(C(=O)OC)C1c1ccc(C)c([N+](=O)[O-])c1 [Example 21]
5. COC(=O)C1=C(C)N(C)C(C)=C(C(=O)OC)C1c1ccc(Br)cc1 [Example 13]
6. COC(=O)C1=C(C)N(C)C(C)=C(C(=O)OC)C1c1ccc(C)c(C(F)(F)F)c1 [Example 27]
7. CCOC(=O)C1=C(C)N(C)C(C)=C(C(=O)OCC)C1c1ccc(C)c([N+](=O)[O-])c1 [Example 22]

Output line:
1. 5000
2. 30
3. 100
4. 500
5. 500
6. 50
7. 500
